ASSAYED TARGET: T1, recombinant cynomolgus monkey IL-13 (cynomolgus monkey, UniProt Q0PW92 21-132)
T1 construct: bought; also called rc-IL-13; cIL-13
T1 sequence (Q0PW92 entry or part of it): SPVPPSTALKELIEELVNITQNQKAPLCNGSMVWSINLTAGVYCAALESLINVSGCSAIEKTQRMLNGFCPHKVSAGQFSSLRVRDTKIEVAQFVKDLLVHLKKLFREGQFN
METHOD SUMMARY: SPR
Exercise: for every item that follows, state its recorded pKd.
# pKd is unitless: minus log10 of the molar concentration; print number only

Record request: pKd value, item BDG38.129 (antibody, V domains shown, IgG1) VH: QMQLVESGGGVVQPGRSLTLSCAASGFEFRTYGMHWVRQAPGKGLEWVGVIWDDGSNTHYADSVKGRFTITRDNSKNTLNLQMNSLRVEDTAVYYCARAPQWYLTAEAFDLWGQGTMVTVSS VL: SYILTQPPSVSVAPGQTATITCGGNLIGAKLVHWYQQKPGQAPVLVIYDDSDRPSRIPERFSGSNIGNTATLTISDVEEGDEADYYCQVWDYSSDHMVFGGGTKLTVL
10.64

Query: pKd; subject: BDG38.075 (antibody, V domains shown, IgG1) VH: QMQLVESGGGVVQPGRSLRLSCAASGFAFRTYGMHWVRQAPGKGLEWVAVIWYDGSATHYADSVKGRFTITRDNSKNTLNLQMNSLRAEDTAVYYCVRAPQWYLSAEAFDLWGQGTMVTVSS VL: SYVLTQPPSVSVAPGETATITCGGNLIGAYLVHWYQQKPGQAPVLVIYDDVDRPARIPERFSGSNSGNTATLTISRVEAGDEADYYCQVWDHDTNTMVFGGGTKLTVL
9.34

Request the reported pKd associated with BDG38.094 (antibody, V domains shown, IgG1) VH: QMQLVESGGGVVQPGRSLRLSCAASGFAFRTYGMHWVRQAPGKGLEWVAVIWDDGSNTHYADSVKGRFTITRDNSKNTLNLQMNSLRAEDTAVYYCVRAPQWYLTAEAFDLWGQGTMVTVSS VL: SYVLTQPPSVSVAPGETASITCGGNLIGAYLVHWYQQKPGQAPLLVIYDDVDRPARIPERFSGSNSGNTATLTISRVEAGDEADYYCQVWDHNSNHMVFGGGTKLTVL
9.57
